Values from paper PMC5974779

Each entry below carries its measured Chemically defined spheroids (this study) 20x, system: primary human hepatocytes (PHH) 3D spheroids.

MOLECULE | MEAS_VALUE
O=C(c1ccccc1)c1ccc2n1CCC2C(=O)O (centres unmarked) | Positive
NCCc1ccc(O)c(O)c1 | Negative
COc1ccc([C@@H]2Sc3ccccc3N(CCN(C)C)C(=O)[C@@H]2OC(C)=O)cc1 | Negative
CNCCC(Oc1ccc(C(F)(F)F)cc1)c1ccccc1 (centres unmarked) | Negative

Input CC(CN1c2ccccc2Sc2ccccc21)N(C)C (centres unmarked) . Output Chemically defined spheroids (this study) 20x: Negative

Input `CCCN(CCC)C(=O)Cc1c(-c2ccc(Cl)cc2)nc2ccc(Cl)cn12` . Output Chemically defined spheroids (this study) 20x: Positive

Input CN(C)C(=O)Oc1cc(OC(=O)N(C)C)cc(C(O)CNC(C)(C)C)c1 (centres unmarked) . Output Chemically defined spheroids (this study) 20x: Negative

Input Clc1ccc(COC(Cn2ccnc2)c2ccc(Cl)cc2Cl)c(Cl)c1 (centres unmarked) . Output Chemically defined spheroids (this study) 20x: Negative

Input `COC1=CC(=O)C[C@@H](C)[C@]12Oc1c(Cl)c(OC)cc(OC)c1C2=O` . Output Chemically defined spheroids (this study) 20x: Negative

Input `N[C@@H](Cc1ccc(O)c(O)c1)C(=O)O` . Output Chemically defined spheroids (this study) 20x: Negative

Input Cc1cccc(C)c1OCC(C)N (centres unmarked) . Output Chemically defined spheroids (this study) 20x: Positive
